Attribute: inhibition at 20 h
biological target: CYP21 (steroid 21-hydroxylase) (Homo sapiens, UniProt P08686); assay: Inhibition of human CYP21 transfected in HEK293 cells assessed as decrease in conversion of progesterone to 11-deoxycorticosterone preincubated for 5 hrs followed by progesterone addition measured after 20 hrs by ELISA; format: cell-based; parameters: concentration or dose not given beside the values; conditions: HEK293 cells transfected with human CYP21, probe progesterone
Sequence (P08686 whole entry): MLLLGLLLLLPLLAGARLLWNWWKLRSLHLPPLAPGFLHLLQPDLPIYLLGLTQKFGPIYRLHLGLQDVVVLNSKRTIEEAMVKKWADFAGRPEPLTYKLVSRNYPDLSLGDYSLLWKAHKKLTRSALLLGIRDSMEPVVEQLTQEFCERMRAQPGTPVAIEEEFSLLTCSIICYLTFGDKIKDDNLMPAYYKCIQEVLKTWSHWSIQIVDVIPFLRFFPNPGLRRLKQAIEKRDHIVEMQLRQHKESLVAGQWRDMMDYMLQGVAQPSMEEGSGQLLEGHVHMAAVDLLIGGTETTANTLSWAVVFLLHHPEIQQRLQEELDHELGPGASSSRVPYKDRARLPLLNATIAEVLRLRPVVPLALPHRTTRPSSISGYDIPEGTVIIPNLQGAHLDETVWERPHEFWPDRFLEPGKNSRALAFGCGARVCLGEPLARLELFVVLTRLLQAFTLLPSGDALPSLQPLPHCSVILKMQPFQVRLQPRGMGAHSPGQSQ
experimental-readout: inhibition at 20 h

• CCc1ccncc1C1=CC=C2[C@@H]3CCC4CC(=O)CC[C@]4(C)[C@H]3CC[C@]12C (some centres undefined) = 10 to 50%
• C[C@]12CCC(=O)C=C1C(F)CC1[C@@H]2CC[C@]2(C)C(c3cccnc3)=CC[C@@H]12 (single isomer, unassigned) = ≥ 50%
• CC1C[C@@H]2[C@H](CC[C@]3(C)C(c4cccnc4)=CC[C@@H]23)[C@@]2(C)CC[C@@](C)(O)CC12 (some centres undefined) = 10 to 50%
• CC(=O)N[C@@H]1CC[C@@]2(C)C(=CC[C@@H]3[C@@H]2CC[C@]2(C)C(c4cncc(C(F)F)c4)=CC[C@@H]32)C1 = ≥ 50%
